Source of measurements: paper PMC6619336

type: in vivo, human; conditions: human, plasma, po, 200 mg
assay metric: tmax (h)
One number for each entry, in h.

Q: What value of tmax has been reported for the following compound? Cc1cccc(C)c1N(CC(=O)Nc1ccc(-c2ncon2)cc1)C(=O)C1CCS(=O)(=O)CC1
Ans: 1.5

----------
format: in vivo, human; conditions: human, plasma, po, 200 mg
assay metric: AUC(0-t) (µg·h/mL)
One number for each entry, in µg·h/mL.

Q: Which AUC(0-t) is reported for this compound? Cc1cccc(C)c1N(CC(=O)Nc1ccc(-c2ncon2)cc1)C(=O)C1CCS(=O)(=O)CC1 [Amenamevir]
Ans: 8.69

----------
type: in vivo, human; settings: human, plasma, po, 200 mg
assay metric: half-life (h)
Give bare numbers, in h.

Q: Given Cc1cccc(C)c1N(CC(=O)Nc1ccc(-c2ncon2)cc1)C(=O)C1CCS(=O)(=O)CC1 [Amenamevir] , state its recorded half-life.
Ans: 7.65
